Exercise: for every item that follows, state its recorded TGI.
- Test system: LXFL 529 NSCLC
- Experiment summary: NCI tumour cell line growth inhibition, 48 h

Entry [O-]/[N+](=C\c1ccccc1)[C@H](COCc1ccccc1)c1ccccc1 — recorded TGI = > 100 µM

Value of measured TGI for the entry COc1c2c(c3c(c1C1OC(C)[C@@H](C)O1)CC(C)(C)O3)C(=O)c1ccccc1C2=O (stereo partly drawn) : > 100 µM

For this compound ( COC(=O)C(=O)C(C(=O)Nc1cccc(C)c1C)C1Sc2ccccc2NC1=O (stereo not drawn) ), measured TGI is > 25 µM

According to the records, this compound Cc1cccc(C(=O)c2cccc3ccccc23)c1C(=O)O displays TGI of > 100 µM

Looking up COc1ccc(S(=O)(=O)NC(C)C(=O)O)cc1 (stereo not drawn) , I see its TGI listed as > 100 µM

For reference, reported TGI for O=C(O)CCCl stands at > 5000 µM

# TGI of CCCNC1CC(n2cc(C)c(=O)[nH]c2=O)OC1CO (stereo not drawn) = > 100 µM

Query COc1cc(CCc2cccnc2)cc(OC)c1OC yields TGI of > 100 µM

---

- Test system: RPMI-8226 leukemia
- Experiment summary: NCI tumour cell line growth inhibition, 48 h; in the data active means GI50 below about 0.43 µM; inactive means the rest
Give your call using only these classes: 1 (yes) (active), 0 (no) (inactive)

Query: Please indicate how the test categorized COC(=O)[C@@H](NC(=O)NC(=O)NC(=O)CI)C(C)C .
Response: 0 (no)

Query: What outcome does the record of this test show for Cc1c2cnccc2c(C)c2c1c1cc(C3OCCCO3)ccc1n2C ?
Response: 1 (yes)

Query: Hi, sorry to bother you, what did the test record for C=C(Cn1c(=O)c2ccccc2c2ccccc21)c1ccc(C(=O)Nc2ccccc2N)cc1 ?
Response: 0 (no)

Query: Each molecule tested received a call. Report the one for CC1[C@@H]2[C@@H](C=C3C4CCC5Cc6nc7c(nc6C[C@@]5(C)C4C[C@H](O)[C@]32CO)CC2CCC3C4=C[C@H]5O[C@@]6(O[C@@](C)(CO)C[C@@H]6O)C(C)[C@@]5(O)[C@]4(C)[C@@H](O)CC3[C@]2(C)C7)O[C@]12CCC(C)(C)O2 (stereo partly specified) .
Response: 1 (yes)

Query: What outcome does the record of this test show for CCCC(=O)O ?
Response: 0 (no)

Query: Please let me know the test result on file for COc1cc(C(=O)OCCCCCCCCCCC[P+](c2ccccc2)(c2ccccc2)c2ccccc2)ccc1O .
Response: 1 (yes)

---

Could you please report measured GI50 for the items listed next?
- Tested on: SN12C renal
- Experiment summary: NCI tumour cell line growth inhibition, 48 h

Please fill in: GI50 reported for CC(=O)C1=C(O)C=C2Oc3c(C(=O)/C=C/c4cc(C(F)(F)F)cc(C(F)(F)F)c4)c(O)c(C)c(O)c3[C@]2(C)C1=O = 513 nM

# GI50 of CC1=C([Se]CC(OC(=O)[C@@H](CSSC(C)(C)C)NC(=O)OC(C)(C)C)C(=O)NC(C)(C)C)C(=O)c2ccccc2C1=O (some centres undefined) = 1370 nM

Entry under test: C[n+]1c(/C=C\C=C\N2CCCCC2)sc2ccccc21 . Its GI50 was 716 nM

Briefly, GI50 measured for CCCN(CCC)CCCNCc1cc(I)cc(C)c1O : 28700 nM

Notebook: O=S(=O)(Nc1ncccn1)c1ccc(N=Nc2ccc(O)c3ncccc23)cc1 , GI50 read as 6430 nM

Noted for Cc1cc(C)nc(NC(N)=NCCc2ccccc2)n1 : its GI50 reads 3200 nM

Entry COc1ccc(-c2[nH]ncc2-c2cc3c(c(OC)c2)OCC(=O)N3)cc1 ; GI50 = 630 nM

Looking up C=C1C(=O)O[C@H]2[C@H]1CC/C(CNC(=O)/C=C/c1ccc(Br)cc1)=C\CC[C@@]1(C)O[C@@H]21 , I see its GI50 listed as 1220 nM

Reported GI50 for CC/C(Cc1ccccc1)=C(\c1ccc(OCCN2CCCCCC2)cc1)c1ccc(OC(=O)NCc2ccccc2)cc1 was 1830 nM
